These measurements were taken from patent US7741479B2.

# inhibition at 3 µM annotations
molecular target: p38 (Homo sapiens); construct: made in house; test: Protein Kinase Assay (33P incorporation from γ-[33P]ATP into GST-ATF-2 substrate); type: biochemical; details: compound at 3 μM; read-out: Protein Kinase (% Inhibition at 3 μM)
Sequence (Q16539 whole entry): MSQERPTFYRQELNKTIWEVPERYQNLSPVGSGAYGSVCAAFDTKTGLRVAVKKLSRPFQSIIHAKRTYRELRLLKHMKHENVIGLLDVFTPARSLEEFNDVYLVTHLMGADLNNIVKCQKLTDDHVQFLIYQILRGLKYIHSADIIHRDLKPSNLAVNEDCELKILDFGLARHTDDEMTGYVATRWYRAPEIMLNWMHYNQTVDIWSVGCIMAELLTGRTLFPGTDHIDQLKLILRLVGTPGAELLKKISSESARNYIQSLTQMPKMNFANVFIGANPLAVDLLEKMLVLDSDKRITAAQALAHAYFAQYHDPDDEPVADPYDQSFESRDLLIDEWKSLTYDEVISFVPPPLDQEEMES

>  <COMPOUND>
CC(C)(C)c1cc(C(=O)N2CCNC(=O)CC2)c(NC(=O)Nc2ccc(C#N)c3ccccc23)s1

>  <QUANTITY NAME>
inhibition at 3 µM

>  <VALUE MEASURED>
76 to 100%

$$$$
>  <COMPOUND>
CC(C)(C)c1cc(C(=O)N2CCS(=O)(=O)CC2)c(NC(=O)Nc2ccc3ncoc3c2)s1

>  <QUANTITY NAME>
inhibition at 3 µM

>  <VALUE MEASURED>
76 to 100%

$$$$
>  <COMPOUND>
CC(C)(C)c1nc(C(=O)N2CCNS(=O)(=O)CC2)c(NC(=O)Nc2cccc3ccccc23)s1

>  <QUANTITY NAME>
inhibition at 3 µM

>  <VALUE MEASURED>
76 to 100%

$$$$
>  <COMPOUND>
CC(C)(C)c1cc(C(=O)N2CCNC(=O)CC2)c(NC(=O)Nc2ccc3c(c2)OCO3)s1

>  <QUANTITY NAME>
inhibition at 3 µM

>  <VALUE MEASURED>
76 to 100%

$$$$
>  <COMPOUND>
CC(C)(C)c1cc(C(=O)N2CCS(=O)(=O)CC2)c(NC(=O)Nc2ccc(Cl)c(Cl)c2)s1

>  <QUANTITY NAME>
inhibition at 3 µM

>  <VALUE MEASURED>
76 to 100%

$$$$
>  <COMPOUND>
CC(C)(C)c1nc(C(=O)N2CCNC(=O)C2)c(NC(=O)Nc2cccc3ccccc23)s1

>  <QUANTITY NAME>
inhibition at 3 µM

>  <VALUE MEASURED>
76 to 100%

$$$$

query: Determine from records and report inhibition at 3 µM for CC(C)(C)c1cc(C(=O)N2CCS(=O)(=O)CC2)c(NC(=O)Nc2ccc(C#N)cc2C(F)(F)F)s1
result: 76 to 100%

query: Determine from records and report inhibition at 3 µM for CC(C)(C)c1cc(C(=O)N2CCS(=O)(=O)CC2)c(NC(=O)NC(C)(C)c2ccccc2)s1
result: 0 to 25%

query: Determine from records and report inhibition at 3 µM for CC(C)(C)c1cc(C(=O)N2CCS(=O)(=O)CC2)c(NC(=O)Nc2cc(Cl)cc(Cl)c2)s1
result: 76 to 100%

query: Determine from records and report inhibition at 3 µM for CC1C(=O)NCCN1C(=O)c1cc(C(C)(C)C)sc1NC(=O)Nc1cccc2ccccc12 (stereo not shown)
result: 76 to 100%

query: Determine from records and report inhibition at 3 µM for CC(C)(C)c1cc(C(=O)N2CCNC(=O)C2)c(NC(=O)Nc2ccc(C#N)c3ccccc23)s1
result: 76 to 100%

query: Determine from records and report inhibition at 3 µM for CC(C)(C)c1cc(C(=O)N2CCNC(=O)CC2)c(NC(=O)Nc2ccc(C#N)cc2C(F)(F)F)s1
result: 76 to 100%

query: Determine from records and report inhibition at 3 µM for Cn1ccc(NC(=O)Nc2sc(C(C)(C)C)cc2C(=O)N2CCS(=O)(=O)CC2)n1
result: 0 to 25%

query: Determine from records and report inhibition at 3 µM for CC(C)(C)c1cc(C(=O)N2CCS(=O)(=O)CC2)c(NC(=O)Nc2ccc3c(c2)OC(F)(F)O3)s1
result: 76 to 100%

query: Determine from records and report inhibition at 3 µM for CC(C)(C)c1cc(C(=O)N2CCNC(=O)CC2)c(NC(=O)Nc2cccc(Cl)c2)s1
result: 76 to 100%

query: Determine from records and report inhibition at 3 µM for CC(C)(C)c1cc(C(=O)N2CCS(=O)(=O)CC2)c(NC(=O)Nc2cccc(Cl)c2)s1
result: 76 to 100%

query: Determine from records and report inhibition at 3 µM for CC(C)(C)c1cc(NC(=O)Nc2cccc3ccccc23)c(C(=O)N2CCNS(=O)(=O)CC2)s1
result: 76 to 100%

query: Determine from records and report inhibition at 3 µM for CC(C)(C)c1cc(C(=O)N2CCNC(=O)CC2)c(NC(=O)Nc2cccc(Cl)c2Cl)s1
result: 76 to 100%

query: Determine from records and report inhibition at 3 µM for Cc1cc(NC(=O)Nc2sc(C(C)(C)C)cc2C(=O)N2CCS(=O)(=O)CC2)cc(C)n1
result: 26 to 50%

query: Determine from records and report inhibition at 3 µM for COc1ccc(NC(=O)Nc2sc(C(C)(C)C)cc2C(=O)N2CCNS(=O)(=O)CC2)cc1Cl
result: 76 to 100%

query: Determine from records and report inhibition at 3 µM for CC(C)(C)c1cc(C(=O)N2CCNC(=O)CC2)c(NC(=O)Nc2ccc(C#N)cc2Cl)s1
result: 76 to 100%

query: Determine from records and report inhibition at 3 µM for CN(CCS(C)(=O)=O)C(=O)c1cc(C(C)(C)C)sc1NC(=O)Nc1cccc2ccccc12
result: 76 to 100%

query: Determine from records and report inhibition at 3 µM for CC(C)(C)c1cc(C(=O)N2CCS(=O)(=O)CC2)c(NC(=O)Nc2c[nH]c3ccccc23)s1
result: 51 to 75%

query: Determine from records and report inhibition at 3 µM for CC(C)(C)c1cc(C(=O)N2CCNS(=O)(=O)CC2)c(NC(=O)Nc2ccc3c(c2)OCO3)s1
result: 76 to 100%

query: Determine from records and report inhibition at 3 µM for CC(C)(C)c1cc(C(=O)N2CCS(=O)(=O)CC2)c(NC(=O)Nc2ccc3ocnc3c2)s1
result: 76 to 100%

query: Determine from records and report inhibition at 3 µM for COc1ccc(NC(=O)Nc2sc(C(C)(C)C)cc2C(=O)N2CCS(=O)(=O)CC2)cc1Cl
result: 76 to 100%

query: Determine from records and report inhibition at 3 µM for CC(C)(C)c1cc(C(=O)N2CCNS(=O)(=O)CC2)c(NC(=O)Nc2ccc(C#N)cc2Cl)s1
result: 76 to 100%

query: Determine from records and report inhibition at 3 µM for CC(C)(C)c1cc(C(=O)NCCS(C)(=O)=O)c(NC(=O)Nc2cccc3ccccc23)s1
result: 76 to 100%

query: Determine from records and report inhibition at 3 µM for CC(C)(C)c1cc(C(=O)N2CCS(=O)(=O)CC2)c(NC(=O)Nc2ccc(C#N)c(Cl)c2)s1
result: 51 to 75%

query: Determine from records and report inhibition at 3 µM for CC(C)(C)c1cc(C(=O)N2CCNS(=O)(=O)CC2)c(NC(=O)Nc2ccc(Cl)c(Cl)c2)s1
result: 76 to 100%

query: Determine from records and report inhibition at 3 µM for CC(C)(C)c1cc(C(=O)N2CCS(=O)(=O)CC2)c(NC(=O)Nc2ccc(C#N)cc2Cl)s1
result: 76 to 100%
